The values you see were collected from patent US8211892B2.

{"Compound": "CS(=O)(=O)N1CCN(c2ccc(N3CCN(C(=O)N[C@H]4C5CC6CC4C[C@@](F)(C6)C5)c4ccccc43)cc2)CC1 [Compound No. 40]", "melting point": "165 to 200 °C"}
{"Compound": "CCS(=O)(=O)N1CCN(c2ccc(N3CCN(C(=O)N[C@H]4C5CC6CC4C[C@@](O)(C6)C5)c4ccccc43)cc2)CC1 [compound 34]", "melting point": "138 to 160 °C"}
{"Compound": "O=C(c1ccc(-c2csc(N3CCN(C(=O)NC4C5CC6CC(C5)CC4C6)c4ccccc43)n2)cc1)N1CCOCC1 (stereo not drawn) [compound 6]", "melting point": "163 to 169 °C"}
